The measured values listed here are drawn from the RNAGym collection of RNA variant scans (doi:10.7554/elife.80360).

B1: HDV Ribozyme (parent)
chain: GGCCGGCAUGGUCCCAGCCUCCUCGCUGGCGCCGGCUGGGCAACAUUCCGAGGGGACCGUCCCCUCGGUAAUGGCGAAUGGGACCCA

Variants of: B1
assay.text: self-cleavage, relative activity (ratio to wild type); higher = more cleavage; co-transcriptional
property: self-cleavage

| mutant.designation | property | obs.value |
| --- | --- | --- |
| G35C A83G | self-cleavage | 0.237 |
| G40U U79C | self-cleavage | 0.185 |
| U37C C63U | self-cleavage | 1.11 |
| G52U U69C | self-cleavage | 0.831 |
| C19U A70G | self-cleavage | 0.141 |
| U9C U60C | self-cleavage | 1.11 |
| U23G G73U | self-cleavage | 0.0604 |
| A43C G73C | self-cleavage | 0.309 |
| C58A C63U | self-cleavage | 1.02 |
| G1A G17C | self-cleavage | 0.107 |
| G39U C41A | self-cleavage | 0.719 |
| G34A G54A | self-cleavage | 0.16 |
| C7U A42C | self-cleavage | 0.18 |
| G40A A71C | self-cleavage | 0.485 |
| G28A C48G | self-cleavage | 0 |
| G6U G31C | self-cleavage | 0.122 |
| G6C C85G | self-cleavage | 0.375 |
| G5A C36G | self-cleavage | 0 |
| C14G U69G | self-cleavage | 0.604 |
| G5C C63A | self-cleavage | 0.383 |
| G10A A70G | self-cleavage | 0.801 |
| A45G C85U | self-cleavage | 1.06 |
| C7U G50A | self-cleavage | 0.786 |
| U9C C62U | self-cleavage | 0.869 |
| C30U C62A | self-cleavage | 0.562 |
| G2U G38C | self-cleavage | 0.0181 |
| G73U G76C | self-cleavage | 0.158 |
| C3U G76A | self-cleavage | 0.908 |
| C15U C63U | self-cleavage | 0.914 |
| G28A A77C | self-cleavage | 0.119 |
| C36A G80U | self-cleavage | 0.0825 |
| A16C A71U | self-cleavage | 0.623 |
| C22G C33A | self-cleavage | 0 |
| A43U C57G | self-cleavage | 0.674 |
| U12A U60G | self-cleavage | 0 |
| C18U C58U | self-cleavage | 0.554 |
